Observed IC50, system Cytochrome P450 2C19 (Homo sapiens).

- compound: "Cl.Cl.N=C(Nc1ccc2c(C3CN4CCC3CC4)c[nH]c2c1)c1cccs1 (single isomer, unassigned; enantiomer 2)"
  IC50 [µM]: 49.6
- compound: "CN1CC=C(c2c[nH]c3cc(NC(=N)c4cccs4)ccc23)CC1.Cl.Cl"
  IC50 [µM]: 40.1

----------
- system: Nitric oxide synthase 1 (Homo sapiens)
- Sequence (P29475 whole entry): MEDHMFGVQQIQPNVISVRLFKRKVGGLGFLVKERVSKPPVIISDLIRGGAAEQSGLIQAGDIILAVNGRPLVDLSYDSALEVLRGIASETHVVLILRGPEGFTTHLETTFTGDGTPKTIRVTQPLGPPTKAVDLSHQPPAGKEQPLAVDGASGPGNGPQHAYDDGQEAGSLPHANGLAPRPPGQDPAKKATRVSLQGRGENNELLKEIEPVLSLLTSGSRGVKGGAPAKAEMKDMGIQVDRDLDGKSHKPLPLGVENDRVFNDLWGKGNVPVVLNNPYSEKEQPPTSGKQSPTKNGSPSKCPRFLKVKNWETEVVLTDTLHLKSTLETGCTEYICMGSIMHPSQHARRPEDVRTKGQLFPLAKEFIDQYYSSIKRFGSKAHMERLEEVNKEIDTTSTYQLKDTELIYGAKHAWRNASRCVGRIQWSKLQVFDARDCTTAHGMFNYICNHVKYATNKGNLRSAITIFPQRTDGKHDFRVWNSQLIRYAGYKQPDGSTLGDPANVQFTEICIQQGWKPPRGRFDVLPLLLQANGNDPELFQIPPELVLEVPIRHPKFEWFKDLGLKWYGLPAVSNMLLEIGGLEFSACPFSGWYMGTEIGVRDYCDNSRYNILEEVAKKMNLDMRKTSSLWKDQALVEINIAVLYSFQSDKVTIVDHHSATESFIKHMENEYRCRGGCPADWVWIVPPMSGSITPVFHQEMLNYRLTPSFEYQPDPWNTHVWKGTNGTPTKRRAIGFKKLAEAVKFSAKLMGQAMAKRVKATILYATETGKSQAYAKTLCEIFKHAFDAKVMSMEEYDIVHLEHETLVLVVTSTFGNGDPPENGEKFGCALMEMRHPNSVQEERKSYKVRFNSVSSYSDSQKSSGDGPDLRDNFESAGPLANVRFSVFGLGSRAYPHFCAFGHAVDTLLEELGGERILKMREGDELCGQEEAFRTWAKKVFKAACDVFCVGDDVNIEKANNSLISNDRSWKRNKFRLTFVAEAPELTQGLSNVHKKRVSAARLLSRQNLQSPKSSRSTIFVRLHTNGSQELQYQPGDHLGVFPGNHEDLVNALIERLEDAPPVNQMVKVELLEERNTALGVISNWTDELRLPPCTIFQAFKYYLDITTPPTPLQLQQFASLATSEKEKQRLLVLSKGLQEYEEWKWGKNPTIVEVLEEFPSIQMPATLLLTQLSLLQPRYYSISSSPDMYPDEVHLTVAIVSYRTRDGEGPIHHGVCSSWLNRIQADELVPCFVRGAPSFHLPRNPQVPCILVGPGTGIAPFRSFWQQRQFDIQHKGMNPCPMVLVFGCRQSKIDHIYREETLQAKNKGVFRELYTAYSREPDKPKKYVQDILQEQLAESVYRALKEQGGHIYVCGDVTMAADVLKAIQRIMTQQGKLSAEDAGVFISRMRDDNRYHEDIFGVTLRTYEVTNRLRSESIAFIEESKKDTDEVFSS
- runDescription: Inhibition of human recombinant nNOS expressed in Sf9 cells assessed as inhibition of conversion of [3H]-L-arginine to [3H]-L-citrulline after 45 mins by liquid scintillation counting
The following molecules are shown together with reported IC50 values.
valueKind: IC50 (nM)

- molecule: "N=C(Nc1ccc2c(C3CN4CCC3CC4)c[nH]c2c1)c1cccs1 (single isomer, unassigned; enantiomer 1)"
  valueKind: "IC50"
  resultUnits: "nM"
  observedValue: 530
- molecule: "N=C(Nc1ccc2c(C3=CN4CCC3CC4)c[nH]c2c1)c1cccs1"
  valueKind: "IC50"
  resultUnits: "nM"
  observedValue: 1500
- molecule: "COC(=O)[C@@H](N)CCCNC(=N)N[N+](=O)[O-]"
  valueKind: "IC50"
  resultUnits: "nM"
  observedValue: 690
- molecule: "CN1CC=C(c2c[nH]c3cc(NC(=N)c4cccs4)ccc23)CC1.Cl.Cl"
  valueKind: "IC50"
  resultUnits: "nM"
  observedValue: 800
- molecule: "CN1CCC(c2c[nH]c3cc(NC(=N)c4cccs4)ccc23)CC1"
  valueKind: "IC50"
  resultUnits: "nM"
  observedValue: 120
- molecule: "Cl.Cl.N=C(Nc1ccc2c(C3CN4CCC3CC4)c[nH]c2c1)c1cccs1 (single isomer, unassigned; enantiomer 2)"
  valueKind: "IC50"
  resultUnits: "nM"
  observedValue: 450
- molecule: "N=C(Nc1ccc2c(C3CN4CCC3CC4)c[nH]c2c1)c1cccs1 (racemic)"
  valueKind: "IC50"
  resultUnits: "nM"
  observedValue: 1230
